target_of_assay: HDAC1 (Homo sapiens (Human))
Sequence (Q13547 whole entry): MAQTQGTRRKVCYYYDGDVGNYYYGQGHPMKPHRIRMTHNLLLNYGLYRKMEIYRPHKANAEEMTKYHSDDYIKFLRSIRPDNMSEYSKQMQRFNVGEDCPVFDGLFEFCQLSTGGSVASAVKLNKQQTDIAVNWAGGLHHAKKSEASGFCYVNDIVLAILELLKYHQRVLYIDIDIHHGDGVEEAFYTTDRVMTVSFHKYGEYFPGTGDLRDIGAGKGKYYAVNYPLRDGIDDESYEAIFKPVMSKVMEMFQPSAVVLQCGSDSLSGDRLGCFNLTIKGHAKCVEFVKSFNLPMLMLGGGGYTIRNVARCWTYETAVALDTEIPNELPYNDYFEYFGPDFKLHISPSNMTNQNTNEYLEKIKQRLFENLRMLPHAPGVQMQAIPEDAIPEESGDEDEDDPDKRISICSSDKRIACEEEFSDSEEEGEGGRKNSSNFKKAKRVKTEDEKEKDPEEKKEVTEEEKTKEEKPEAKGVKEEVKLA
method_summary: In vitro HDAC enzyme inhibition, mobility shift
Assay type: biochemical
study_conditions: purified enzyme
reported_endpoint: IC50 (µM)

O=C(NO)c1ccc(Nc2nc3ccccc3n2C2CCCCCC2)cc1 [ID #3] ... 0.445

(P) O=C(NO)c1ccc(Nc2nc3ccccc3n2C2CCCCC2)cc1 [ID #2]
(Q) O=C(NO)c1ccc(Nc2nc3ccccc3n2CC2CCCCC2)cc1 [ID #1]
Which item exceeds the other in IC50, P or Q ? Please reply using the label of the selected record.
P
(P: 0.385 µM, Q: 0.13 µM)

----------
target_of_assay: HDAC3 (Homo sapiens (Human), UniProt O15379)
Sequence (O15379 whole entry): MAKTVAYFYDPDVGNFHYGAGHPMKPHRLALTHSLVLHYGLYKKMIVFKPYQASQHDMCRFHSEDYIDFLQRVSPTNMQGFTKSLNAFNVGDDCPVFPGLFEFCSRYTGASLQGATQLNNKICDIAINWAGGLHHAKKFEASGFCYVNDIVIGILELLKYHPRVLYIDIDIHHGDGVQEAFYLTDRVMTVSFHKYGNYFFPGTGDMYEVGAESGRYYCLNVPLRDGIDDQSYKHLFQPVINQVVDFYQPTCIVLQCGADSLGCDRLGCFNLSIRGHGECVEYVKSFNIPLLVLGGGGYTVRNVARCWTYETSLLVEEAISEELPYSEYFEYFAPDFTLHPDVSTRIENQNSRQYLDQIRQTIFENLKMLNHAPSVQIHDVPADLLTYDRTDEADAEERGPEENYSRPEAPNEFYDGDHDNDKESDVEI
Sequence (Q9Y618 395-489 partner): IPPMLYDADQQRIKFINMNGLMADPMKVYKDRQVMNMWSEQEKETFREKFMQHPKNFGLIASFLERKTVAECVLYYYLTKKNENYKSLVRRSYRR
method_summary: In vitro HDAC enzyme inhibition, mobility shift
Format: biochemical
study_conditions: purified enzyme
reported_endpoint: IC50 (µM)

O=C(NO)c1ccc(Nc2nc3ccccc3n2C2CCCCCC2)cc1 ... 0.079

(P) O=C(NO)c1ccc(Nc2nc3ccccc3n2C2CCCCC2)cc1
(Q) O=C(NO)c1ccc(Nc2nc3ccccc3n2CC2CCCCC2)cc1
Higher IC50: P or Q ? Your choice should be expressed through its label.
P
